Where do the numbers come from? From patent US12493040B2.

chemotaxis index values by entry
- Tested on: RNAi-treated eri-1 (mg366) nematodes
- PROTOCOL_DETAILS: RNAi screening of olfactory receptor genes: chemotaxis assay of RNAi-treated nematodes to odorants
- Format: in vivo, Caenorhabditis elegans
- EXPERIMENTAL_SETUP: srh-41 RNAi-treated nematodes; low concentration of attractant

[[record]]
query_smiles = "c1cnccn1"
readout_type = "chemotaxis index"
value_measured = 0.71


Lab request: please report chemotaxis index under test system RNAi-treated eri-1 (mg366) nematodes for `CCC(=O)C(C)=O`
0.57

How about `Cc1nc(C)c(C)s1` ?
0.85

How about `CCC(C)=O` ?
0.64

###

- Test system: RNAi-treated eri-1 (mg366) nematodes
- PROTOCOL_DETAILS: RNAi screening of olfactory receptor genes: chemotaxis assay of RNAi-treated nematodes to odorants
- Assay type: in vivo, Caenorhabditis elegans
- EXPERIMENTAL_SETUP: srh-223 RNAi-treated nematodes; low concentration of attractant
Assign satisfied whenever chemotaxis index does not fall below 0.4; assign not satisfied whenever it does.

[[record]]
query_smiles = "Cc1nc(C)c(C)s1"
label_value = "satisfied"

[[record]]
query_smiles = "CCC(C)=O"
label_value = "satisfied"

[[record]]
query_smiles = "c1cnccn1"
label_value = "satisfied"

[[record]]
query_smiles = "CCC(=O)C(C)=O"
label_value = "not satisfied"

[[record]]
query_smiles = "O=Cc1ccccc1"
label_value = "satisfied"


Here's the next entry for you.
Please check the record `CC(C)CCO` and state if its chemotaxis index is at or above 0.4.
satisfied

###

- System: RNAi-treated eri-1 (mg366) nematodes
- PROTOCOL_DETAILS: RNAi screening of olfactory receptor genes: chemotaxis assay of RNAi-treated nematodes to odorants
- Format: in vivo, Caenorhabditis elegans
- EXPERIMENTAL_SETUP: srh-7 RNAi-treated nematodes; repellent or high concentration of attractant
READOUT_TYPE: chemotaxis index
The response must contain the number and no unit.

[[record]]
molecule = "CCCCCCCC(C)=O [nonanone]"
readout_type = "chemotaxis index"
value_measured = "−0.78"

[[record]]
molecule = "CC(C)CCO [High Iaa]"
readout_type = "chemotaxis index"
value_measured = "−0.86"

[[record]]
molecule = "O=Cc1ccccc1 [High Bz]"
readout_type = "chemotaxis index"
value_measured = "−1.00"

[[record]]
molecule = "CC(=O)C(C)=O [High Da]"
readout_type = "chemotaxis index"
value_measured = "−0.83"


Continue with the next molecule.
# lookup: chemotaxis index of CCCCCCCCO [octanol]
−0.65

###

- Test system: RNAi-treated eri-1 (mg366) nematodes
- PROTOCOL_DETAILS: RNAi screening of olfactory receptor genes: chemotaxis assay of RNAi-treated nematodes to odorants
- Assay type: in vivo, Caenorhabditis elegans
- EXPERIMENTAL_SETUP: srh-28 RNAi-treated nematodes; repellent or high concentration of attractant
Assign label 1 whenever chemotaxis index does not fall below -0.7; assign label 0 whenever it does.

Please check the record `O=Cc1ccccc1` and state if its chemotaxis index is at or above -0.7.
label 0

How about `CC(C)CCO` ?
label 1

How about `CCCCCCCCO` ?
label 0

How about `CC(=O)C(C)=O` ?
label 1

###

- System: RNAi-treated eri-1 (mg366) nematodes
- PROTOCOL_DETAILS: RNAi screening of olfactory receptor genes: chemotaxis assay of RNAi-treated nematodes to odorants
- Type: in vivo, Caenorhabditis elegans
- EXPERIMENTAL_SETUP: srh-55 RNAi-treated nematodes; low concentration of attractant
READOUT_TYPE: chemotaxis index
The response must contain the number and no unit.

Lab request: please report chemotaxis index under test system RNAi-treated eri-1 (mg366) nematodes for `Cc1nc(C)c(C)s1`
0.56
